test system: Setaria viridis; test: Herbicidal activity against green foxtail (Setaria viridis L. Beauv.) as the dose required for 50% control; assay type: functional
# binarize -Log ED50: threshold 0.8 M acre-1 inclusive, high side rule met, low side rule not met

# MOLECULE, LABEL VALUE
rows = [
    ("Cc1ccc(C)c(CS(=O)(=O)c2cccc[n+]2[O-])c1C", "rule not met"),
    ("Cc1ccc(Cl)c(C(C)S(=O)(=O)c2cccc[n+]2[O-])c1 (configuration not stated)", "rule not met"),
    ("Cc1ccc(C)c(CS(=O)(=O)c2cccc[n+]2[O-])c1", "rule not met"),
    ("CC(C)c1ccc(C(C)C)c(C(C)S(=O)(=O)c2cccc[n+]2[O-])c1 (configuration not stated)", "rule not met"),
    ("N#Cc1ccccc1CS(=O)(=O)c1cccc[n+]1[O-]", "rule not met"),
    ("CC(C)c1ccc(C(C)C)c(CS(=O)(=O)c2cccc[n+]2[O-])c1", "rule not met"),
    ("COc1cc(CS(=O)(=O)c2cccc[n+]2[O-])cc(OC)c1OC", "rule not met"),
    ("O=S(=O)(Cc1c(Cl)cccc1Cl)c1cccc[n+]1[O-]", "rule not met"),
    ("O=S(=O)(Cc1ccccc1F)c1cccc[n+]1[O-]", "rule not met"),
    ("COc1ccc(C)cc1CS(=O)(=O)c1cccc[n+]1[O-]", "rule not met"),
    ("CC(c1cc(C(F)(F)F)ccc1Cl)S(=O)(=O)c1cccc[n+]1[O-] (configuration not stated)", "rule not met"),
    ("CCc1ccc(CC)c(C(C)S(=O)(=O)c2cccc[n+]2[O-])c1 (configuration not stated)", "rule met"),
    ("COc1ccc(Br)c(CS(=O)(=O)c2cccc[n+]2[O-])c1", "rule not met"),
    ("O=S(=O)(Cc1ccccc1Oc1ccccc1)c1cccc[n+]1[O-]", "rule not met"),
    ("Cc1ccc(C(C)S(=O)(=O)c2cccc[n+]2[O-])cc1C (configuration not stated)", "rule met"),
    ("O=S(=O)(Cc1ccccc1)c1cccc[n+]1[O-]", "rule not met"),
    ("CCCCOc1cccc(CS(=O)(=O)c2cccc[n+]2[O-])c1", "rule not met"),
    ("O=S(=O)(Cc1ccccc1I)c1cccc[n+]1[O-]", "rule not met"),
    ("Cc1c(Cl)ccc(C(C)S(=O)(=O)c2cccc[n+]2[O-])c1Cl (configuration not stated)", "rule met"),
    ("Cc1ccc(C(F)(F)F)cc1C(C)S(=O)(=O)c1cccc[n+]1[O-] (configuration not stated)", "rule met"),
    ("Cc1ccc(C(C)C)cc1C(C)S(=O)(=O)c1cccc[n+]1[O-] (configuration not stated)", "rule not met"),
    ("CC(c1cccc(C(F)(F)F)c1)S(=O)(=O)c1cccc[n+]1[O-] (configuration not stated)", "rule not met"),
    ("Cc1ccccc1C(C)S(=O)(=O)c1cccc[n+]1[O-] (configuration not stated)", "rule met"),
    ("CC(c1cc(F)ccc1F)S(=O)(=O)c1cccc[n+]1[O-] (configuration not stated)", "rule met"),
    ("O=S(=O)(Cc1c(Cl)ccc(Cl)c1Cl)c1cccc[n+]1[O-]", "rule not met"),
    ("CC(c1cccc(Cl)c1F)S(=O)(=O)c1cccc[n+]1[O-] (configuration not stated)", "rule met"),
    ("CC(c1ccc([N+](=O)[O-])cc1)S(=O)(=O)c1cccc[n+]1[O-] (configuration not stated)", "rule not met"),
    ("CC(c1cc(Cl)ccc1Cl)S(=O)(=O)c1cccc[n+]1[O-] (configuration not stated)", "rule met"),
    ("CC(C)c1ccc(CS(=O)(=O)c2cccc[n+]2[O-])cc1", "rule not met"),
    ("O=S(=O)(Cc1ccccc1Cl)c1cccc[n+]1[O-]", "rule not met"),
]

Source listed as ChEMBL document CHEMBL1122355.
